- Test system: KM12 colon
- test-description: NCI tumour cell line growth inhibition, 48 h
measured-parameter: TGI

INPUT: Item O=[N+]([O-])c1ccc(Nc2cccc3c2[nH]c2c(-c4ccccc4)nccc23)c([N+](=O)[O-])c1 has what recorded TGI?
OUTPUT: > 100 µM

INPUT: Recorded TGI of c1ccc(-c2cc3n4c(-c5ccccc5)nn(-c5ccccc5)c4cnc-3n2)cc1 , please.
OUTPUT: > 50 µM

INPUT: Tell me the measured TGI of CN(C)C(=S)/N=c1\ss/c(=N\S(=O)(=O)c2ccccc2)n1C , please.
OUTPUT: > 100 µM

INPUT: Value lookup for TGI; key = Cc1ccc(S(=O)(=O)N/N=C\c2c3ccccc3[n+](C)c3ccccc23)cc1
OUTPUT: > 100 µM

INPUT: So what does the record say about TGI for CC1=NN(c2nc(N)nc(-c3cc4ccccc4oc3=N)n2)C(C)(C)C1 ?
OUTPUT: 34.2 µM

====

- Tested on: MDA-MB-231 breast
- test-description: NCI tumour cell line growth inhibition, 48 h
Where a SMILES comes first, the peptide text is derived from it. [ ]: non-standard residue; d: D form.
measured-parameter: TGI

INPUT: Could you tell me which TGI is on file for Nc1ccn(CC(O)c2cc3ccccc3[nH]2)c(=O)n1 (centres undefined) ?
OUTPUT: > 100 µM

INPUT: Query (compound): CSCC[C@H](NC(=O)[C@@H](N)CC(N)=O)C(=O)N[C@@H](Cc1c[nH]c2ccccc12)C(=O)N[C@@H](CCC(N)=O)C(=O)N[C@@H](CCC(=O)O)C(=O)N[C@H](C(=O)NCC(=O)N[C@@H](CCCCN)C(=O)N[C@H](C)C(=O)O)C(C)C (H-NMWQEVGK[dA]-OH) ; field requested: TGI
OUTPUT: > 100 µM

INPUT: Item under review: CCCCOc1ccc(S(=O)(=O)/N=C(\NO)Nc2ccc(Cl)cc2)cc1 . Reported TGI?
OUTPUT: 33.9 µM

INPUT: Query (compound): CCN(CC)C(=O)c1cc([N+](=O)[O-])c(=O)n2c1[nH]c1ccccc12 ; field requested: TGI
OUTPUT: > 100 µM

====

- System: SNB-19 CNS
- test-description: NCI tumour cell line growth inhibition, 48 h
measured-parameter: TGI

INPUT: Find the recorded TGI belonging to COc1cc([C@@H]2c3cc4c(cc3[C@@H](NCc3cccc(F)c3)C3COC(=O)[C@@H]32)OCO4)cc(OC)c1O (stereo not given in full) and report it.
OUTPUT: > 65 µM

INPUT: # input compound: COc1ccc(C2C3=C(COC3=O)N(CCO)c3cc4c(cc32)CCC4)cc1 (stereo not given) ; wanted: its TGI
OUTPUT: > 50 µM

INPUT: Given the entry N#C/C(=C1\OC(N)=C(c2ccc(Cl)cc2)C1=O)c1ccc(Cl)cc1 , report its measured TGI.
OUTPUT: 39.6 µM

INPUT: Value lookup for TGI; key = NC(=S)NS(=O)(=O)c1ccc(Cl)cc1
OUTPUT: > 100 µM

INPUT: Quick check: TGI of CC(C)=CCC[C@@H](C)C1=C(O)C(Nc2ccccc2)=C(C)C(=O)C1=O ?
OUTPUT: > 100 µM

INPUT: # input compound: COc1cc2c(=O)n(CC3CCCCC3)c3c4cc[nH]c4ncc3c2cc1OC ; wanted: its TGI
OUTPUT: 19.5 µM

INPUT: Any idea what its TGI is? The compound is C#C[C@@H](CCCC)OC(=O)N[C@H](C)c1ccccc1
OUTPUT: > 100 µM

INPUT: Fill blank: measured TGI of the compound CC1(C2CCC3(C)C(C2)C3Sc2ccccc2)OCCO1 (stereo not given) is ____.
OUTPUT: 82.6 µM

INPUT: Could you tell me which TGI is on file for CCOC(=O)Cc1cc(=O)[nH]c(-n2[nH]c(C)c(CCO)c2=O)n1 ?
OUTPUT: > 100 µM

INPUT: // returns reported TGI for input Cc1cc2nc(-c3ccc(O)c(O)c3)n(Cc3ccc(O)c(O)c3)c2cc1C
OUTPUT: > 100 µM
